- TARGET_UNDER_TEST: Ubiquitin carboxyl-terminal hydrolase 7 (Homo sapiens) (UniProt Q93009)
- Sequence (Q93009 whole entry, looked up): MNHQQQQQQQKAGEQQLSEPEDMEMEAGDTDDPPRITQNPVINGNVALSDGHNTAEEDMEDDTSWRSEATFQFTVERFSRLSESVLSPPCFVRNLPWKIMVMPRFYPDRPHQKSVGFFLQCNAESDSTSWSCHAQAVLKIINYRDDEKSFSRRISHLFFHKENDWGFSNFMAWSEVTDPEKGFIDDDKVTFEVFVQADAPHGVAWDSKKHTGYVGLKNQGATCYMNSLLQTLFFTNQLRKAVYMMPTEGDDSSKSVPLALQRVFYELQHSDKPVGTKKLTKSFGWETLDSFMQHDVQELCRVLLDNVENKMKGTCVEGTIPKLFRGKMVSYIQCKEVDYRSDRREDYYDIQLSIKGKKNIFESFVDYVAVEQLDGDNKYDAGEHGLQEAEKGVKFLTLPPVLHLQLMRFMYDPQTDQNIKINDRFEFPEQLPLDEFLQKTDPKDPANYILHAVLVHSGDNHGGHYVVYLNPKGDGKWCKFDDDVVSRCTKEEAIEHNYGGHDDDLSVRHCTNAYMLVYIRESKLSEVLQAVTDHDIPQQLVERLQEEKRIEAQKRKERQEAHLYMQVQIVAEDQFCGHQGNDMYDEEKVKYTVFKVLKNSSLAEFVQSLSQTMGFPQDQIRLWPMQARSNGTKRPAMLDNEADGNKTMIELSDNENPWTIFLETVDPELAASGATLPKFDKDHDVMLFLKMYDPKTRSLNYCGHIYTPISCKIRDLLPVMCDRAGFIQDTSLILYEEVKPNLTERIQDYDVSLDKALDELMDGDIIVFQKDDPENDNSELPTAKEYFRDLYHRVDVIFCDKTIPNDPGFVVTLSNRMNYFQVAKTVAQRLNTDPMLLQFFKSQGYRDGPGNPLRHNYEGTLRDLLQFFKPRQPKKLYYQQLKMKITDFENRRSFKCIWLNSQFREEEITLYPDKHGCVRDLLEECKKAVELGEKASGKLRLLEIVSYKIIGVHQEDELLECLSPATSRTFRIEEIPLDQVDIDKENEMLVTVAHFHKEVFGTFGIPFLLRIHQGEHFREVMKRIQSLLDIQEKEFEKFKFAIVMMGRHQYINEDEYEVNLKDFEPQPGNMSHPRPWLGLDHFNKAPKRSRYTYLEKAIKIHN
- ASSAY_INFO: Ubiquitin-specific protease 7 DUB inhibitors, concentration-effect, biochemical, validation of primary hits (AID 1645861)
- CONDITION_NOTES: purified USP7, Ub-rhodamine cleavage fluorescence, 60 min
Active and inactive are the calls of the source.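 The calls were made as follows: active = compounds whose peak USP7 inhibition across the dose series reached 30% or more; inactive = the rest.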
Write down one outcome, taken from YES = active, NO = inactive

What outcome does the record of this test show for COc1ccc(Cl)cc1NC(=O)c1nc(-c2cn(-c3ccccc3)nn2)no1 ?
NO

Consider next the molecule Cn1c2ccccc2c(=O)c2c(=O)n(Cc3ccco3)c(-c3ccccc3F)nc21 in the same way.
NO

Try this molecule next: COc1ccc(Nc2nc3c(S(=O)(=O)c4ccc(C)cc4)nnn3c3ccsc23)c(OC)c1
NO

Thanks! And COc1ccccc1CNC(=O)CCCCn1c(=O)c2ccccc2n(CC(=O)Nc2ccc(C)cc2C)c1=O ?
NO

Entry Cc1ccnc(Nc2nc(-c3ccccc3)c3cc(Cl)ccc3n2)n1 please
YES

Please answer likewise for Cc1nn(-c2ccc(F)cc2)c(C)c1S(=O)(=O)N1CCN(c2ccccn2)CC1
NO

----------
- TARGET_UNDER_TEST: Ubiquitin carboxyl-terminal hydrolase 7 (Homo sapiens) (UniProt Q93009)
- ASSAY_INFO: Ubiquitin-specific protease 7 DUB inhibitors, concentration-effect, biochemical, validation of primary hits (AID 1645861)
- CONDITION_NOTES: purified USP7, Ub-rhodamine cleavage fluorescence, 60 min
Activity calls are given as the source filed them.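 The calls were made as follows: active = compounds whose peak USP7 inhibition across the dose series reached 30% or more; inactive = the rest.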
The reply should be one of these categories: active, inactive

Known results for molecules:
Cn1c(=O)c2ncnnc2n(C)c1=O    inactive
COC(=O)c1ccccc1NC(=O)Cn1c(=O)n(CCCC(=O)NCc2ccco2)c(=O)c2ccccc21    inactive
Cc1cc(C(=O)N2CCOCC2)c(C)n1-c1ccc(O)cc1    inactive
Cc1ccc(NC(=O)Cn2cncc(-c3nc(-c4ccccc4)cs3)c2=O)cc1F    inactive
Cc1cccc(N2C(=O)/C(=C\c3cc(C#N)n(C)c3C)c3ccccc3C2=O)c1    inactive
Cc1sc(NC(=O)Cn2nnc3ccccc32)nc1-c1ccc2c(c1)CCN2C(=O)c1ccccc1F    inactive
COc1ccc(CC(=O)Nc2ccccc2-c2nc3ccccc3[nH]2)cc1OC    inactive
Cc1nc(N2CCN(c3ccc(Cl)cc3)CC2)c2oc3ccccc3c2n1    inactive
Cc1ccc2[nH]c3c(=O)n(Cc4ccc(N(C)C)cc4)cnc3c2c1    inactive
Cc1cc(NS(=O)(=O)c2ccc(NC(=O)c3ccc(N4CCCC4)c([N+](=O)[O-])c3)cc2)no1    inactive

Record lookup: outcome of this test for Cc1cc(=O)n2c3c(c4c(cc13)c(CO)cc(=O)n4C)OC2 ?
inactive

Lookup Cc1ccc(Nc2nc(O)c(CC(=O)Nc3cccc(Cl)c3C)s2)cc1C
inactive

Again, but for Cc1ccc(Cl)cc1NC(=O)Cn1c(=O)n(CCC(=O)NCc2ccco2)c(=O)c2ccccc21
inactive

Param item: CC1=C(Cn2c3cccc(=O)c-3nc3ccccc32)CCC(C)(C)C1
inactive

How about this molecule: Cc1ccc(Nc2nc3c(S(=O)(=O)c4ccccc4)nnn3c3ccccc23)c(C)c1
active

Same again, this time with COc1ccc(-c2cc(-c3ccccc3)nc(SCC(N)=O)c2C#N)cc1OC
inactive

----------
- TARGET_UNDER_TEST: Ubiquitin carboxyl-terminal hydrolase 7 (Homo sapiens) (UniProt Q93009)
- ASSAY_INFO: Ubiquitin-specific protease 7 DUB inhibitors, concentration-effect, biochemical, validation of primary hits (AID 1645861)
- CONDITION_NOTES: purified USP7, Ub-rhodamine cleavage fluorescence, 60 min
The source made the active and inactive calls.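 Rule for the calls: active = compounds whose peak USP7 inhibition across the dose series reached 30% or more; inactive = the rest.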
Form entry, call: pick from active, inactive

Below are worked cases with known answers.
Cc1cccc(NC(=O)Nc2nnc(CC(=O)NCc3ccccc3)s2)c1    inactive
CCOc1ccc2c(c1)c(=O)c(C(=O)c1ccccc1)cn2CC(=O)Nc1ccc(Cl)cc1    active
Cc1ccc2nc(CNc3ccc(F)cc3C)cc(=O)n2c1    inactive
O=C(Nc1cccc([N+](=O)[O-])c1)Nc1ccc2snnc2c1    active

Would you mind telling me which call this test gave CCCCCCCC1OC(=O)Cc2cc(O)c(O)c(O)c21 (stereo unspecified) ?
inactive

----------
- TARGET_UNDER_TEST: UniProtKB Q93009
- ASSAY_INFO: Ubiquitin-specific protease 7 DUB inhibitors, concentration-effect, biochemical, validation of primary hits (AID 1645861)
- CONDITION_NOTES: purified USP7, Ub-rhodamine cleavage fluorescence, 60 min
Active and inactive are the calls of the source.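 The calls were made as follows: active = compounds whose peak USP7 inhibition across the dose series reached 30% or more; inactive = the rest.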
We begin with a simple list: items and their reported IC50.

Take a look at these entries with their results.
O=c1c(O)c(-c2ccc(O)c(O)c2)oc2cc(O)cc(O)c12    5.22 µM
CCOc1cccc(-c2noc(-c3nn(-c4ccccc4)ccc3=O)n2)c1    > 50 µM (inactive)
COC(=O)c1ccc(Nc2cc(C)nc3cc(C(F)(F)F)ccc23)cc1    > 50 µM (inactive)
CC(=O)Nc1ccc(NC(=O)c2ccc3c(c2)CC(c2ccccc2)OC3=O)cc1 (stereo unspecified)    > 50 µM (inactive)
Cc1ccc(Nc2nc(NCC(=O)Nc3cc(C)ccc3C)nc(Nc3ccc(C)cc3)n2)cc1    > 50 µM (inactive)

Now take the following molecule into account.
Value lookup for IC50; key = Cc1nc(-c2ccc(Cl)cc2)oc1C(=O)Nc1ccc(Cl)cc1
> 50 µM (inactive)

----------
- TARGET_UNDER_TEST: Ubiquitin carboxyl-terminal hydrolase 7 (Homo sapiens)
- ASSAY_INFO: Ubiquitin-specific protease 7 DUB inhibitors, concentration-effect, biochemical, validation of primary hits (AID 1645861)
- CONDITION_NOTES: purified USP7, Ub-rhodamine cleavage fluorescence, 60 min
The source made the active and inactive calls.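 The calls were made as follows: active = compounds whose peak USP7 inhibition across the dose series reached 30% or more; inactive = the rest.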
Your response should consist of one outcome taken from active, inactive

Cc1cc(=O)n(CC(=O)Nc2ccccc2C)c(Nc2ccc(F)cc2)n1    inactive

Assay outcome for O=C(c1ccco1)N1CCC2(CC1)CC1(CO2)Nc2ccccc2-n2cccc21 (centres undefined) : what was it?
inactive

Another molecule: CN1C(=O)COc2cc(-c3noc(C(=O)NCc4ccc(F)cc4)n3)ccc21
inactive

// query: Cc1cc(C)cc(NC(=O)Nc2ccccc2OCc2cc(=O)n3c(ncn3C(C)C)n2)c1
inactive

Same question for O=C1Nc2ccccc2C(=O)C1C(c1ccc(Cl)cc1)C1C(=O)Nc2ccccc2C1=O (centres undefined) please.
active

Now give it for COc1cccc(C(=O)Nc2ccc(SC(C)C(=O)Nc3ccc(C(N)=O)cc3)cc2)c1 (centres undefined) too.
inactive

Same thing, different molecule: CC(C)=CCOC(C)(C)[C@H]1OC2CC[C@@]3(C)C(CCC4Cc5c([nH]c6ccccc56)[C@@]43C)C23OC3[C@@H]1O (some centres undefined)
active

Also check Cc1cccc(NC(=O)Nc2ccccc2OCc2cc(=O)n3cccc(C)c3n2)c1
inactive

Queued: COc1ccc(-c2ccc3cc(C(=O)O)ccc3c2)cc1C12CC3CC(CC(C3)C1)C2
inactive

----------
IC50: recorded values
- TARGET_UNDER_TEST: Ubiquitin carboxyl-terminal hydrolase 7 (Homo sapiens) (UniProt Q93009)
- ASSAY_INFO: Ubiquitin-specific protease 7 DUB inhibitors, concentration-effect, biochemical, validation of primary hits (AID 1645861)
- CONDITION_NOTES: purified USP7, Ub-rhodamine cleavage fluorescence, 60 min
Calls of active or inactive are those of the source.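 The calls were made as follows: active = compounds whose peak USP7 inhibition across the dose series reached 30% or more; inactive = the rest.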

Consider the following illustrative entries.
CC(C)=CCC(O)C1=CC(=O)c2c(O)ccc(O)c2C1=O (centres undefined)    9.02 µM
CCCC(O)CCCCCCCc1cc(O)cc(O)c1C(=O)OC(CCC)CCCCCCCc1cc(O)cc(O)c1 (centres undefined)    > 50 µM (inactive)
CCOc1ccc(-c2noc(-c3nn(-c4cccc(OC)c4)ccc3=O)n2)cc1    > 50 µM (inactive)
O=C(Cn1c(=O)n(-c2ccc(CC(=O)NC3CCCC3)cc2)c(=O)c2ccccc21)Nc1ccccc1[N+](=O)[O-]    > 50 µM (inactive)
COc1ccccc1CNC(=O)CCCCn1c(=O)c2ccccc2n(Cc2ccc(C)cc2)c1=O    > 50 µM (inactive)
CC(C)=CCC/C(C)=C/COc1ccc(/C=C2\C(=O)N(O)[C@@H](C)C(=O)N2O)cc1    > 50 µM (inactive)
Cn1c2ccccc2c2ncn(CCCN3CCOCC3)c(=O)c21    > 50 µM (inactive)
O=C(CCc1ccc(S(=O)(=O)N2CCOCC2)cc1)OCC(=O)c1ccc(-c2ccccc2)cc1    > 50 µM (inactive)
CCCCCCCCCCCC1=C(O)C(=O)C=C(O)C1=O    14.7 µM
CCC1OC(O)(C(C)C(O)C(C)C2OC(=O)/C(C)=C/C(C)=CC(C)C(O)C(C)C/C(C)=C/C=C/C2OC)CC(OC(=O)/C=C/C(=O)NC2=C(O)CCC2=O)C1C (centres undefined)    23.2 µM

Which measured IC50 belongs to COC(=O)c1ccc2c(=O)n(CCCCCC(=O)NCCc3ccccc3Cl)c(=O)[nH]c2c1 , tested on Ubiquitin carboxyl-terminal hydrolase 7 (Homo sapiens) (UniProt Q93009)?
> 50 µM (inactive)

Cool, now COc1cc2c(cc1OC)-c1cc(Nc3ccc(Br)cc3)nc(=O)n1CC2
> 50 µM (inactive)

Now consider COc1ccc(NC(=O)Cn2c(=O)n(-c3ccc(CC(=O)NCc4ccco4)cc3)c(=O)c3ccccc32)cc1Cl and answer again.
> 50 µM (inactive)

Another molecule: O=c1ccc(-c2cc3ccccc3o2)cn1Cc1ccccc1-c1ccccc1
31.4 µM

Now consider N#Cc1cn2c(nc1-c1ccc(Cl)cc1)nc1ccccc12 .
> 50 µM (inactive)

Next up: O=C(NCCc1ccccc1)c1ccc2c(=O)n(Cc3ccco3)c(=O)n(Cc3cccc([N+](=O)[O-])c3)c2c1
13.4 µM

What do you have for O=c1[nH]c(C2CCN(S(=O)(=O)c3ccc(S(=O)(=O)NC4CC4)cc3)CC2)nc2c1nnn2Cc1c(Cl)cccc1Cl ?
> 50 µM (inactive)

COC(=O)c1ccc(N2CCN(C(C)=O)CC2)c(NC(=O)COc2ccc([N+](=O)[O-])cc2)c1 ?
> 50 µM (inactive)

Param item: COc1ccc2cc(C(=O)N3CCC(C(C)C(=O)NCc4cccc(F)c4)CC3)[nH]c2c1 (centres undefined)
> 50 µM (inactive)
